- Test system: Aspergillus niger
- ASSAY_NOTES: Antifungal activity against Aspergillus niger MTCC 1344 by liquid dilution technique
- Assay type: functional
Active and inactive are the calls of the source. The rule behind the calls is not given here.
READOUT: MIC

Use the examples below as a reference point.
>  <SMILES_DATA>
Cc1ccc(-c2nnc(-n3c(/C=C/c4ccccc4)nc4ccccc4c3=O)o2)cc1

>  <VAL>
145 mg/L

$$$$
>  <SMILES_DATA>
Cc1ccc(-c2nnc(-n3c(/C=C/c4ccc(Cl)cc4)nc4ccccc4c3=O)o2)cc1

>  <VAL>
inactive

$$$$
>  <SMILES_DATA>
Cc1ccc(/C=C/c2nc3ccccc3c(=O)n2-c2nnc(-c3ccccc3)o2)cc1

>  <VAL>
inactive

$$$$
>  <SMILES_DATA>
O=c1c2ccccc2nc(/C=C/c2ccccc2)n1-c1nnc(-c2ccc(Cl)cc2)o1

>  <VAL>
130 mg/L

$$$$
>  <SMILES_DATA>
Cc1nc2ccccc2c(=O)n1-c1nnc(-c2ccc(Cl)cc2)o1

>  <VAL>
172 mg/L

$$$$

Below is a list of compounds. For each, state its recorded MIC.
1. COc1ccc(-c2nnc(-n3c(/C=C/c4ccccc4)nc4ccccc4c3=O)o2)cc1
2. Cc1ccc(/C=C/c2nc3ccccc3c(=O)n2-c2nnc(-c3ccc(N(C)C)cc3)o2)cc1
3. Cc1nc2ccccc2c(=O)n1-c1nnc(-c2ccc(N(C)C)cc2)o1
4. Clc1ccccc1C(c1ccccc1)(c1ccccc1)n1ccnc1

A:
1. inactive
2. inactive
3. 170 mg/L
4. 6 mg/L

---

- Test system: Fusarium oxysporum
- ASSAY_NOTES: Antifungal activity against Fusarium oxysporum by liquid dilution technique
- Format: functional
Activity calls are given as the source filed them. The rule behind the calls is not given here.
READOUT: MIC

>  <SMILES_DATA>
O=c1c2ccccc2nc(/C=C/c2ccc(Cl)cc2)n1-c1nnc(-c2ccc(Cl)cc2)o1

>  <MIC>
inactive

$$$$
>  <SMILES_DATA>
CN(C)c1ccc(-c2nnc(-n3c(/C=C/c4ccccc4)nc4ccccc4c3=O)o2)cc1

>  <MIC>
166 µg/mL

$$$$
>  <SMILES_DATA>
Cc1nc2ccccc2c(=O)n1-c1nnc(-c2ccccc2)o1

>  <MIC>
192 µg/mL

$$$$
>  <SMILES_DATA>
COc1ccc(-c2nnc(-n3c(/C=C/c4ccccc4)nc4ccccc4c3=O)o2)cc1

>  <MIC>
inactive

$$$$
>  <SMILES_DATA>
COc1ccc(-c2nnc(-n3c(/C=C/c4ccc(Cl)cc4)nc4ccccc4c3=O)o2)cc1

>  <MIC>
inactive

$$$$

Provide each entry's MIC from the list below.
1. COc1ccc(-c2nnc(-n3c(C)nc4ccccc4c3=O)o2)cc1
2. Cc1ccc(/C=C/c2nc3ccccc3c(=O)n2-c2nnc(-c3ccc(Cl)cc3)o2)cc1
3. O=c1c2ccccc2nc(/C=C/c2ccc(Cl)cc2)n1-c1nnc(-c2ccccc2)o1

A:
1. 175 µg/mL
2. inactive
3. inactive

Your task in this section: give MIC for each listed record.
1. Cc1ccc(/C=C/c2nc3ccccc3c(=O)n2-c2nnc(-c3ccccc3)o2)cc1
2. Cc1ccc(-c2nnc(-n3c(/C=C/c4ccccc4)nc4ccccc4c3=O)o2)cc1
3. Cc1nc2ccccc2c(=O)n1-c1nnc(-c2ccc(Cl)cc2)o1
4. Cc1ccc(/C=C/c2nc3ccccc3c(=O)n2-c2nnc(-c3ccc(C)cc3)o2)cc1
5. CN(C)c1ccc(-c2nnc(-n3c(/C=C/c4ccc(Cl)cc4)nc4ccccc4c3=O)o2)cc1

A:
1: inactive; 2: 156 µg/mL; 3: 184 µg/mL; 4: inactive; 5: inactive

Report MIC for every entry below.
1. O=c1c2ccccc2nc(/C=C/c2ccccc2)n1-c1nnc(-c2ccccc2)o1
2. Cc1nc2ccccc2c(=O)n1-c1nnc(-c2ccc(N(C)C)cc2)o1
3. Cc1ccc(/C=C/c2nc3ccccc3c(=O)n2-c2nnc(-c3ccc(N(C)C)cc3)o2)cc1
4. COc1ccc(-c2nnc(-n3c(/C=C/c4ccc(C)cc4)nc4ccccc4c3=O)o2)cc1
5. O=c1c2ccccc2nc(/C=C/c2ccccc2)n1-c1nnc(-c2ccc(Cl)cc2)o1
6. Clc1ccccc1C(c1ccccc1)(c1ccccc1)n1ccnc1
7. Cc1ccc(-c2nnc(-n3c(C)nc4ccccc4c3=O)o2)cc1

A:
1: 152 µg/mL; 2: 179 µg/mL; 3: inactive; 4: inactive; 5: 141 µg/mL; 6: 8 µg/mL; 7: 180 µg/mL

Q: Report measured MIC; entry is Cc1ccc(-c2nnc(-n3c(/C=C/c4ccc(Cl)cc4)nc4ccccc4c3=O)o2)cc1
A: inactive

---

- System: Bacillus subtilis
- ASSAY_NOTES: Antibacterial activity against Bacillus subtilis MTCC 619 by liquid dilution technique
- Assay type: functional
Activity calls are given as the source filed them. The rule behind the calls is not given here.
READOUT: MIC

Some compounds with recorded MIC:
>  <SMILES_DATA>
COc1ccc(-c2nnc(-n3c(/C=C/c4ccccc4)nc4ccccc4c3=O)o2)cc1

>  <EXPERIMENTAL_TARGET>
Bacillus subtilis

>  <VAL>
inactive

$$$$
>  <SMILES_DATA>
Cc1ccc(/C=C/c2nc3ccccc3c(=O)n2-c2nnc(-c3ccc(Cl)cc3)o2)cc1

>  <EXPERIMENTAL_TARGET>
Bacillus subtilis

>  <VAL>
inactive

$$$$
>  <SMILES_DATA>
COc1ccc(-c2nnc(-n3c(C)nc4ccccc4c3=O)o2)cc1

>  <EXPERIMENTAL_TARGET>
Bacillus subtilis

>  <VAL>
85 µg/mL

$$$$
>  <SMILES_DATA>
COc1ccc(-c2nnc(-n3c(/C=C/c4ccc(C)cc4)nc4ccccc4c3=O)o2)cc1

>  <EXPERIMENTAL_TARGET>
Bacillus subtilis

>  <VAL>
inactive

$$$$
>  <SMILES_DATA>
Cc1ccc(-c2nnc(-n3c(C)nc4ccccc4c3=O)o2)cc1

>  <EXPERIMENTAL_TARGET>
Bacillus subtilis

>  <VAL>
122 µg/mL

$$$$
>  <SMILES_DATA>
Cc1nc2ccccc2c(=O)n1-c1nnc(-c2ccc(Cl)cc2)o1

>  <EXPERIMENTAL_TARGET>
Bacillus subtilis

>  <VAL>
84 µg/mL

$$$$

Kindly give each listed record's MIC.
1. Cc1ccc(/C=C/c2nc3ccccc3c(=O)n2-c2nnc(-c3ccc(C)cc3)o2)cc1
2. O=c1c2ccccc2nc(/C=C/c2ccccc2)n1-c1nnc(-c2ccc(Cl)cc2)o1
3. Cc1ccc(/C=C/c2nc3ccccc3c(=O)n2-c2nnc(-c3ccc(N(C)C)cc3)o2)cc1

A:
["inactive", "75 µg/mL", "inactive"]

---

- Tested on: Aspergillus niger
- ASSAY_NOTES: Antifungal activity against Aspergillus niger MTCC 1344 by liquid dilution technique
- Format: functional
Active and inactive are the calls of the source. The rule behind the calls is not given here.
READOUT: MIC

Look over these answered cases.
>  <SMILES_DATA>
Cc1ccc(/C=C/c2nc3ccccc3c(=O)n2-c2nnc(-c3ccc(C)cc3)o2)cc1

>  <VAL>
inactive

$$$$
>  <SMILES_DATA>
COc1ccc(-c2nnc(-n3c(/C=C/c4ccc(C)cc4)nc4ccccc4c3=O)o2)cc1

>  <VAL>
inactive

$$$$
>  <SMILES_DATA>
COc1ccc(-c2nnc(-n3c(C)nc4ccccc4c3=O)o2)cc1

>  <VAL>
165 µg/mL

$$$$
>  <SMILES_DATA>
COc1ccc(-c2nnc(-n3c(/C=C/c4ccc(Cl)cc4)nc4ccccc4c3=O)o2)cc1

>  <VAL>
inactive

$$$$
>  <SMILES_DATA>
Cc1nc2ccccc2c(=O)n1-c1nnc(-c2ccccc2)o1

>  <VAL>
185 µg/mL

$$$$
>  <SMILES_DATA>
Cc1ccc(/C=C/c2nc3ccccc3c(=O)n2-c2nnc(-c3ccc(Cl)cc3)o2)cc1

>  <VAL>
inactive

$$$$

Continue with the compound presented below.
Q: Identify the reported MIC for the following entry. O=c1c2ccccc2nc(/C=C/c2ccc(Cl)cc2)n1-c1nnc(-c2ccc(Cl)cc2)o1
A: inactive

---

- Test system: Bacillus subtilis
- ASSAY_NOTES: Antibacterial activity against Bacillus subtilis MTCC 619 by liquid dilution technique
- Assay type: functional
Activity calls are given as the source filed them. No cut-off for these calls is given here.
READOUT: MIC

Here is how some compounds turned out for MIC.
>  <SMILES_DATA>
Cc1nc2ccccc2c(=O)n1-c1nnc(-c2ccc(N(C)C)cc2)o1

>  <READOUT>
MIC

>  <VAL>
88 µg/mL

$$$$
>  <SMILES_DATA>
Cc1ccc(/C=C/c2nc3ccccc3c(=O)n2-c2nnc(-c3ccccc3)o2)cc1

>  <READOUT>
MIC

>  <VAL>
inactive

$$$$
>  <SMILES_DATA>
O=c1c2ccccc2nc(/C=C/c2ccccc2)n1-c1nnc(-c2ccccc2)o1

>  <READOUT>
MIC

>  <VAL>
80 µg/mL

$$$$
>  <SMILES_DATA>
Cc1ccc(-c2nnc(-n3c(/C=C/c4ccccc4)nc4ccccc4c3=O)o2)cc1

>  <READOUT>
MIC

>  <VAL>
83 µg/mL

$$$$
>  <SMILES_DATA>
COc1ccc(-c2nnc(-n3c(/C=C/c4ccc(Cl)cc4)nc4ccccc4c3=O)o2)cc1

>  <READOUT>
MIC

>  <VAL>
inactive

$$$$

Dear colleague, could you please provide MIC for the compounds listed below?
1. Cc1nc2ccccc2c(=O)n1-c1nnc(-c2ccccc2)o1
2. Cc1ccc(-c2nnc(-n3c(/C=C/c4ccc(Cl)cc4)nc4ccccc4c3=O)o2)cc1
3. O=c1c2ccccc2nc(/C=C/c2ccc(Cl)cc2)n1-c1nnc(-c2ccc(Cl)cc2)o1
4. CCn1cc(C(=O)O)c(=O)c2cc(F)c(N3CCNCC3)cc21
5. CN(C)c1ccc(-c2nnc(-n3c(/C=C/c4ccccc4)nc4ccccc4c3=O)o2)cc1
6. CN(C)c1ccc(-c2nnc(-n3c(/C=C/c4ccc(Cl)cc4)nc4ccccc4c3=O)o2)cc1

A:
1. 127 µg/mL
2. inactive
3. inactive
4. 5 µg/mL
5. 83 µg/mL
6. inactive

Q: Fill in reported MIC for this entry: O=c1c2ccccc2nc(/C=C/c2ccc(Cl)cc2)n1-c1nnc(-c2ccccc2)o1
A: inactive
